- Assay Info: yeast display, Sf9 membrane polyspecificity reagent, FACS + sequencing; frameworks hold sequencing errors
Quantity Kind: polyreactivity (PSR sort gate)

Worked cases, polyreactivity (PSR sort gate) given:
>  <Residues>
QVQLVESGGGLVQAGGSLRLSCAASGRTFGGYAMGRYRQAPGKDRQLVASISWSGGSTYYADSVKGRFTISRDNAKNTVYLQMNSLKPEDTAVYYCAARPYLSRSTRMDYWGQGTQVTVSS

>  <polyreactivity (PSR sort gate)>
low polyreactivity

$$$$
>  <Residues>
QVQLVESGGGLVQAGGSLRLSCAASGITFYYYAMGWYRQAPGKERELVAAISRSGITYYADSVKGRFTISRDNAKNTVYLQMNSLKPEDTAVYYCAAGRRFDQSMYYWGQGTQVTVSS

>  <polyreactivity (PSR sort gate)>
high polyreactivity

$$$$
>  <Residues>
QVQLVESGGGLVQARGSLRLSCAASGRILWDYAMGWYRQAPGKEREWLAAIDWSAGSTYYADSVKGRFTISRDNAKNTVYLQMKSLKPEDTAVYYCNARSRVGNSGADYDYWGQGTQVTVSS

>  <polyreactivity (PSR sort gate)>
low polyreactivity

$$$$
>  <Residues>
QVQLVESGGGLVQAGGSLRLSCASSGRTFRYNAMGWYIQAPGKESELVAAISRSGGRTYYADSVKGRFTISRDNAKNTVYLQMNSLKPEDTAVYYCAAYYYTAGDSSSRYDYWGQGTQVTVSS

>  <polyreactivity (PSR sort gate)>
high polyreactivity

$$$$
>  <Residues>
QVQLVESGGRLVQAGGSLRLSCAASGRIFRYYTMGWYRQAPGKERELVAAITRRGGITNYADSVKGRFTISRDNAKNTVYLQTNSLKPEDTAVYYCAAKYVSQGYDYWGQGTQVTVSS

>  <polyreactivity (PSR sort gate)>
high polyreactivity

$$$$

[ask] Any idea what polyreactivity (PSR sort gate) was measured for QVQLVESGVGLVQAGGSLRLSCAASGRIFTGYAMGWYRQAPGKERELVAAITSSGDGTNYADSVKGRFTISRDNAKNTVYLQMNSLKPEDTAVYYCNADGSYKMDWGQGTQVTVSS ?
[reply] low polyreactivity

[ask] Any idea what polyreactivity (PSR sort gate) was measured for QVQLVESGGGLVQAGGSLRLSCAASGSTFEPYVMGWYRQAPGKERELVAAITYSGGRTYYADSVKGRFTISRDNAKNTVYLQMNSLKPEDTAVYYCAKVDRSYGYSRYWFKYGYWGQGTQVTVSS ?
[reply] low polyreactivity

[ask] Any idea what polyreactivity (PSR sort gate) was measured for QVQLVESGGGLVQAGGSLRLSCAASGSILGRNAMGWYRQAPGKERELVAGITWSTVSTYYADSVKGRFTISRDNAKNTVYLQMNSLKPEDTAVYYCAAAPNLWAYRRWYYTYYYWGQGTQVTVSS ?
[reply] high polyreactivity

[ask] Any idea what polyreactivity (PSR sort gate) was measured for QVQLVESGGGLVQAGGSLRLSCAASGSIFTDYTMGWSRQAPGKERELVAAISWIGDSTDYADSVKGRFTISRDNAKNTVYLQMNSLKPEDTAVYYCAKSRAGRYNDYDYWGQGTQVTVSS ?
[reply] low polyreactivity

[ask] Any idea what polyreactivity (PSR sort gate) was measured for QVQLVESGGGLVQAGGSLRLSCAASGLTFNRYAMGCYRQAPGKEREFVAAISVRSGSTYYADSVKGRFTISRDNAKNTVYLQMNSLKPEDTAVYYCAAKIRKDYSIQGYDYWGQGTQVTVSS ?
[reply] high polyreactivity
